This section presents binders with their documented CRF1R EC50 values.
- tested.system: corticotropin releasing factor 1 receptor
- test.name: cell-based or functional assay
Ends that are not written are not given here.
experimental.endpoint: CRF1R EC50

1) ZGPPISIDVPTYLLRKMIEIEKQEKEKQQATTNARILARV (C-terminal amide) [SEQ ID NO 170]; 1000 nM
2) ZGPPISIDLPTGLLRKMIEIEKQEKEKQQAANNRLLLDTI (C-terminal amide) [SEQ ID NO 73]; > 100 nM
3) ZGPPISIDLPIELLRKMIEIEKQEKEKQQAANNRLLLDTI (C-terminal amide) [SEQ ID NO 76]; > 100 nM
4) DNPSLSIDLPLFLLRTLLELARTQSQRERAEQNAIIFASV-NH2 [SEQ ID NO 178]; 1000 nM
5) IVLSLDVPIGLLQILLEQARARAAREQATSNRKLMEII-NH2 [SEQ ID NO 163]; > 100 nM
6) ZGPPISIDLPLQLLRKMIEIEKQEKEKQQATTNARILARV (C-terminal amide) [SEQ ID NO 144]; 567 nM
